Source listed as the supplement of paper PMC3545927.

Biological target: furin, P09958;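 further: purified furin at 1:10 enzyme:substrate in 50 mM HEPES pH 7.5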
Sequence (P09958 whole entry): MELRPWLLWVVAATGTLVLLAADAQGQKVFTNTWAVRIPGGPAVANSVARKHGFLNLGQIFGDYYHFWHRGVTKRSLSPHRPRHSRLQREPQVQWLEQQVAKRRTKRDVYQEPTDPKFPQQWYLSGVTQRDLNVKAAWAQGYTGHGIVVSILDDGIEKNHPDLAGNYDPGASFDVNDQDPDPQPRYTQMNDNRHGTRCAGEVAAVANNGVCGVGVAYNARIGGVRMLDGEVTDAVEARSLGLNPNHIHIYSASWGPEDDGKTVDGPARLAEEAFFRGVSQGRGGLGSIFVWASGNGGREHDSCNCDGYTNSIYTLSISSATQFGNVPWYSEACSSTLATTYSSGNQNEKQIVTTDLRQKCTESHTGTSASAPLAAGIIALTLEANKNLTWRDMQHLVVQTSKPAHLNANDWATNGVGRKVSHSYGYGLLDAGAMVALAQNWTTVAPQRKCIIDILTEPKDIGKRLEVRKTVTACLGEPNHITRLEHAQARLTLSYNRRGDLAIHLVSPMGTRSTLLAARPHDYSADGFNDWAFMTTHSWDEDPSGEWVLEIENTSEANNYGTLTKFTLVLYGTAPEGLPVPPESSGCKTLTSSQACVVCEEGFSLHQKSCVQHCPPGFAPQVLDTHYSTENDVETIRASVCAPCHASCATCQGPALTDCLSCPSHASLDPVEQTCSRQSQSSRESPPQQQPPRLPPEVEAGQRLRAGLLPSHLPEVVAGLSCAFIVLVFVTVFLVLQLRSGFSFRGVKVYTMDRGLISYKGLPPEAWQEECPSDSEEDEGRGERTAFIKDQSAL
Experiment: furin cleavage Z-score vs untreated control; higher = more cleavage, active = 3.5 or more, inactive = 1 or less, 8 variable residues between constant flanks
Conditions: 30 min
Some of the results follow. No count for the full screen is at hand.
Give Satisfied when the value for furin cleavage Z-score is at least 2. Give Not satisfied when it is less.

Hi team, for CAPEARLRRVAGNASASA [FS-839] , is the recorded furin cleavage Z-score at or above 2?
Satisfied

For this sequence, is measured furin cleavage Z-score 2 or higher? CATAILSSLTAGNASASA [HC1133]
Not satisfied

Is furin cleavage Z-score for CALELRRVRSAGNASASA [FS-605] at or above 2?
Satisfied

Does the sequence CARFDRFILTAGNASASA [FS-2331] have recorded furin cleavage Z-score that is 2 or more?
Not satisfied

Decide: is the reported value of furin cleavage Z-score for CACVVIVGRVAGNASASA [HC1000] equal to or greater than 2?
Not satisfied
